- experimental.target: proteasome (Homo sapiens, UniProt P28074)
- Construct: The obtained high molecular fraction (molecular weight >500K) was used as an enzyme solution for the detection of proteasome activity; endogenous in cells; host or cells: HeLa S3 cells: homogenate, 100,000G supernatant, >500K fraction from Centricon-500
- assay.remarks: Proteasome inhibitory activity (Suc-Leu-Leu-Val-Tyr-AMC cleavage, crude enzyme solution from HeLa S3 cell extract)
- Assay type: biochemical
- condition.context: crude proteasome fraction (>500K) from HeLa S3 cells; substrate Suc-Leu-Leu-Val-Tyr-AMC; 37°C for one hour; read-out: IC50
outcome.measure: IC50 (nM)
Provide the reading as a plain figure in nM.

Provide the documented IC50 with proteasome (Homo sapiens, UniProt P28074) as the system for CCC(C)C1C(=O)OC1C(=O)NC1CC1CC(NC(=O)C(C)NC(=O)OC(C)(C)C)C(=O)OCc1cccc(F)c1 (stereo not shown)
14

Provide the documented IC50 with proteasome (Homo sapiens, UniProt P28074) as the system for CCC(C)C1C(=O)OC1C(=O)NC1CC1CC(NC(=O)C(C)N)C(=O)OCc1ccc2ccccc2c1 (stereo not shown)
38

Provide the documented IC50 with proteasome (Homo sapiens, UniProt P28074) as the system for CCC(C)C1C(=O)OC1C(=O)NC1CC1CC(NC(=O)C(C)NC(=O)OC(C)(C)C)C(=O)NCc1ccccc1 (stereo not shown)
6.2

Provide the documented IC50 with proteasome (Homo sapiens, UniProt P28074) as the system for CC(C)CC1C(=O)OC1C(=O)NCCCCC(NC(=O)C(C)NC(=O)OC(C)(C)C)C(=O)OCc1ccccc1 (stereo not shown)
30

Provide the documented IC50 with proteasome (Homo sapiens, UniProt P28074) as the system for CC(C)CC1C(=O)OC1C(=O)NCCCCC(NC(=O)C(C)NC(=O)OC(C)(C)C)C(=O)NCc1cccc2ccccc12 (stereo not shown)
1

Provide the documented IC50 with proteasome (Homo sapiens, UniProt P28074) as the system for CCC(C)C1C(=O)OC1C(=O)NC1CC1CC(NC(=O)C(C)NC(=O)NC(C)C)C(=O)OCc1ccccc1 (stereo not shown)
11

Provide the documented IC50 with proteasome (Homo sapiens, UniProt P28074) as the system for CCC(C)C1C(=O)OC1C(=O)NCCCC(NC(=O)C(C)N)C(=O)OCc1ccccc1 (stereo not shown)
6
